Study system: T1, MUC16 18mer (not fully specified)
T1 construct: also called non-glycosylated 18-mer MUC16 peptide
T1 peptide: CTRNGTQLQNFTLDRSSV
Measurement protocol: ELISA during fusion screen, dilution 400, column 18
Ends that are not written are not given here.
Attribute measured: ELISA signal
Answer with a bare number; do not write a unit.

Here's what some known entries look like.
{"columns": ["Binder", "ELISA signal"],
 "data": [
  ["16C5.C1 (antibody, V domains shown, Mouse monoclonal from a hybridoma) VH: QVTLKESGPGILQPSQTLSLTCSFSGFSLNTLGMGVGWIRQPSGKGLEWLAHIWWDDDKYYYPALKSRLTISRDTSKNQVFLKIANVDTADTATYYCARIGTAQATDALDYWGQGTSVTVSS VL: ELDMTQTPPSLSASVGETVRIRCLASEDIYSGISWYQQKPGKPPTLLIYGASNLESGVPPRFSGSGSGTDYTLTIGGVQAEDAATYYCLGGYSYSSTLTFGAGTNVEIK", 0.24],
  ["18C6.D12 (antibody, V domains shown, Mouse monoclonal from a hybridoma; also called MUC16 Glycosylation Antibody 18C6) VH: QVTLKESGPGILQPSQTLSLTCSFSGFSLSTVGMGVGWSRQPSGKGLEWLAHIWWDDEDKYYNPALKSRLTISKDTSKNQVFLKIANVDTADTATYYCTRIGTAQATDALDYWGQGTSVTVSS VL: DIVMTQAAPSVPVTPGESVSISCRSSKSLLHSNGNTYLYWFLQRPGQSPQRLIYYMSNLASGVPDRFSGRGSGTDFTLRISRVEAEDVGVYYCMQSLEYPLTFGGGTKLEIK", 0.39],
  ["19C11.H6 (antibody, V domains shown, Mouse monoclonal from a hybridoma; Used as 89Zr-DFO-labelled antibody in the internalization assay; also called MUC16 Glycosylation Antibody 19C11) VH: QVNLKESGPGKLQPSQTLSLTCSFSGFSLSTLGMGVGWIRQSSGKGLEWLAHIWWDDDKYYNPALKSRLTISRATSKNQVFLKIVNVGTADTATYYCARIGTAQATDALDYWGQGTSVTVSS VL: DIVMTQAAPSIPVTPGESVSISCRSSKSLLHSNGNTYLYWFLQRPGQSPQRLIYYMSNLASGVPDRFSGRGSGTDFTLKISRVEAGDVGVYYCMQGLEHPLTFGGGTKLEIK", 0.38]
]}

Now, please, on to the next binder.
Recorded ELISA signal for 7B12.B3 (antibody, V domains shown, Mouse monoclonal from a hybridoma; also called MUC16 Glycosylation Antibody 7B12) VH: QVTLKESGPGILQPSQTLSLTCSFSGFSLSTVGMGVGWSRQPSGKGLEWLAHIWWDDEDKYYNPALKSRLTISKDTSKNQVFLKIANVDTADSATYYCTRIGTAQATDALDYWGQGTSVTVSS VL: DIVMTQAAPSVSVTPGESVSISCRSSKSLRKSNGNTYLYWFLQRPGQSPQRLIYYMSNLASGVPDRFSGRGSGTDFTLRISRVEAEDVGVYYCMQSLEYPLTFGGGTKLKIK , please?
0.53

Reference source: patent US20180112008A1
